These data points were gathered from patent US10703764B2.

- measured-on: BRD4 BD2 (Homo sapiens)
- assay-explanation: AlphaScreen binding assay, BRD4 Bromodomain 2
pIC50: −log10 of the molar value.

compound: CC(=O)N1c2ccc(-c3cnn(CC4(F)COC4)c3)cc2N(C(=O)C2CC2)C[C@@H]1C
pIC50: 6.30 to 7.30
//
compound: CC(=O)N1c2ccc(-c3ccc(C(F)(F)F)nc3)cc2N(C(=O)c2ccco2)C[C@@H]1C
pIC50: 6.30 to 7.30
//
compound: C[C@H]1CN(C(=O)c2ccco2)c2cc(-c3ccc(S(C)(=O)=O)cc3)ccc2N1S(C)(=O)=O
pIC50: < 6.30
//
compound: COC(=O)N1c2ccc(-c3ccc(NS(C)(=O)=O)cc3)cc2N(C(=O)Oc2cccnc2)C[C@@H]1C
pIC50: < 6.30
//
compound: CC(=O)N1c2ccc(-c3cnn(C4COC4)c3)cc2N(C(=O)OCC2COC2)C[C@@H]1C
pIC50: 6.30 to 7.30
//
compound: CC(=O)N1c2cc(NS(C)(=O)=O)ccc2N(C(=O)OC(C)C)C[C@@H]1C
pIC50: < 6.30
//
compound: CC(=O)N1c2ccccc2N(C(=O)CC2CCCC2)C[C@@H]1C
pIC50: < 6.30
//
compound: CC(=O)N1c2ccc(-c3cnn(CC4(CO)COC4)c3)cc2N(C(=O)OC(C)C)C[C@@H]1C
pIC50: > 7.30
//
compound: CC(=O)N1c2ccccc2N(S(=O)(=O)c2ccccc2F)C[C@@H]1C
pIC50: < 6.30
//
compound: CCCS(=O)(=O)c1ccc(-c2ccc3c(c2)N(C(=O)OC(C)C)C[C@H](C)N3C(C)=O)cc1
pIC50: 6.30 to 7.30
//
compound: CC(=O)N1c2ccc(-c3cnc4ccccc4c3)cc2N(C(=O)c2ccco2)C[C@@H]1C
pIC50: 6.30 to 7.30
//
compound: CC(=O)N1c2ccc(-c3ccc(S(C)(=O)=O)cc3)cc2N(C(=O)OC2COC2)C[C@@H]1C
pIC50: < 6.30
//
compound: CCN(CC)C(=O)c1ccc(-c2ccc3c(c2)N(C(=O)OC(C)C)C[C@H](C)N3C(C)=O)cc1
pIC50: > 7.30
//
compound: CC(=O)N1c2ccc(-c3cnn(CC4(F)COC4)c3)cc2N(C(=O)OC(C)C)C[C@@H]1C
pIC50: 6.30 to 7.30
//
compound: CC(=O)N1c2ccc(-c3cnn(C4COC4)c3)cc2N(C(=O)Oc2ccccn2)C[C@@H]1C
pIC50: > 7.30
//
compound: COC(=O)N1c2ccc(-c3cnn(C4CC4)c3)cc2N(C(=O)OC(C)C)C[C@@H]1C
pIC50: 6.30 to 7.30
//
compound: CC(=O)N1c2ccccc2N(Cc2cccc(C)c2)C[C@@H]1C
pIC50: < 6.30
//
compound: CC(=O)Nc1ccc2c(c1)N(C(C)=O)[C@@H](C)CN2C(=O)OC(C)C
pIC50: 6.30 to 7.30
//
compound: COC(=O)N1c2ccc(-c3cnn(C4CC4)c3)cc2N(C(=O)OC2CCC2)C[C@@H]1C
pIC50: 6.30 to 7.30
//
compound: CC(=O)N1c2cc([N+](=O)[O-])c(-c3cnn(C4CC4)c3)cc2N(C(=O)OC(C)C)C[C@@H]1C
pIC50: < 6.30
//
compound: CCN(CC)S(=O)(=O)c1cc(-c2ccc3c(c2)N(C(=O)C2CCC2)C[C@H](C)N3C(C)=O)ccc1OC
pIC50: 6.30 to 7.30
//
compound: CC(=O)N1c2ccc(-c3cnn(C4COC4)c3)cc2N(C(=O)[C@H]2CC2(Cl)Cl)C[C@@H]1C (single isomer, unassigned)
pIC50: < 6.30
//
compound: CC(=O)N1c2ccccc2N(S(=O)(=O)c2ccc(C(F)(F)F)cc2)C[C@@H]1C
pIC50: < 6.30
//
compound: CC(=O)N1c2ccc(-c3ccc(F)c(S(C)(=O)=O)c3)cc2N(C(=O)OC(C)C)C[C@@H]1C
pIC50: 6.30 to 7.30
//
compound: CC(=O)N1c2ccc(-c3ccc(NS(C)(=O)=O)c(F)c3)cc2N(C(=O)OC(C)C)C[C@@H]1C
pIC50: > 7.30
//
compound: CC(=O)N1c2ccc(-c3cnn(Cc4c[nH]cn4)c3)cc2N(C(=O)C2CC2)C[C@@H]1C
pIC50: > 7.30
//
compound: CC(=O)N1c2ccc(-c3cnn(CC(=O)O)c3)cc2N(C(=O)C2CC2)C[C@@H]1C
pIC50: < 6.30
//
compound: CC(=O)N1c2ccc(-c3cnn(CCC(=O)O)c3)cc2N(C(=O)C2CC2)C[C@@H]1C
pIC50: 6.30 to 7.30
